Reported EC50 by item:
target.system: T1, rhPD-L1-Fc (human, UniProt Q9NZQ7 19-239, limits assumed)
T1 construct: Recombinant human PD-L1-Fc coated on ELISA plates; not shown: Fc part
T1 sequence (Q9NZQ7 19-239 limits assumed): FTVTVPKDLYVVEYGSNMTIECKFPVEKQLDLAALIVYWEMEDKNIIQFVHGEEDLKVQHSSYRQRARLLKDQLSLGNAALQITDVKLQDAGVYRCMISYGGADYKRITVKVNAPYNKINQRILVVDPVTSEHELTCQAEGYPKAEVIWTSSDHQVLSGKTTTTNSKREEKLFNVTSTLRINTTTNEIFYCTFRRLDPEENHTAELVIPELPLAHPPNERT
assay.info: competition ELISA: plate-bound rhPD-L1-Fc, antibody titrated, competitor rhCD80-His detected
Your answer is read as µg/mL, so omit the unit and give the number.

antibody A6 (antibody, V domains shown, Tested as full-length mAb made in CHO cells; also called L6H6) VH: QVQLVESGGGVVQPGRSLRLSCAASGFTFSSYGMHWVRQAPGKGLEWVAVIWFDGSNKYYADSVKGRFTISRDNSKNTLYLQMNSLRAEDTAVYYCARDKTVSPFDIWGQGTMVTVSS VL: EIVMTQSPATLSLSPGERATLSCRASQSVSSSYLSWYQQKPGQAPRLLIYGASTRATGIPARFSGSGSGTDFTLTISSLQPEDFAVYYCQQDYNLFTFGPGTKVDIK : 2.62

Now consider the entry below.
Reported EC50, binder antibody A14 (antibody, V domains shown, Tested as full-length mAb made in CHO cells; also called L14H14) VH: QVQLVESGGGVVQPGRSLRLSCAASGFTFSSYGMHWVRQAPGKGLEWVAVIWYDGSVKYYADSVKGRFTISRDNSKNTLYLQMNSLRAEDTAVYYCARDRTGVPFDYWGQGTLVTVSS VL: EIVMTQSPATLSLSPGERATLSCRASQSVSSSYLSWYQQKPGQAPRLLIYGASTRATGIPARFSGSGSGTDFTLTISSLQPEDFAVYYCQQDYNLPHTFGQGTKLEIK : ____
0.6
